Exercise: for every item that follows, state its recorded z-score.
assay: hepatitis C replication reporter changes, two-sided – Huh7 cells, luciferase reporter, HCV replication inhibitor project, primary screen (AID 1109); conditions: Huh7 HCV replicon luciferase reporter, 48 h; higher = more signal;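 also: huh7 hepatoma cells harbouring a luciferase neomycin HCV replicon reporter; luciferase luminescence as measure of HCV replicon replication; test concentration not given here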
Answers are plain numbers.

Solved cases (2 shown):
smiles representation: COC(=O)[C@@]1(Cc2ccc(F)cc2)[C@H]2c3cc(C(=O)N(C)C)n(CCCNc4ccc(C(F)(F)F)cc4Cl)c3C[C@H]2CN1C(=O)c1ccccc1
z-score: -2.38
--
smiles representation: Oc1ccc2cc[n+](Cc3cccc(OC(F)(F)F)c3)cc2c1
z-score: -0.114

Consider now this further compound.
Assign z-score to the following record: O=C1O[C@@H](c2ccccc2)[C@@H](c2ccccc2)N2[C@@H](c3ccccc3OCCO)[C@]3(C(=O)Nc4ccc(C#CC5(O)CCCCCC5)cc43)[C@@H](C(=O)NC[C@H](O)c3ccccc3)[C@H]12 -3.23

* * *

assay: binders from COS7 lysate, DM2A8 probe, primary screen, torsin A project, cell lysate, small-molecule microarray, fluorescence 635/667 (AID 1065); conditions: higher = more signal, COS7 lysate expressing mutant human TOR1A
quantity name: composite z-score

compound: C[N+](C)(C)CCCCNC(=O)[C@H]1C[C@H]2C(=O)N3CCC[C@H]3C(=O)N2[C@H]1c1ccc(O)cc1
composite z-score: 0.799
//
compound: CC(C)C(=C=CC[C@H](O)c1ccccc1OCCO)CCO
composite z-score: -0.0204
//
compound: COCCOC(=O)N1C(=O)[C@@]2(c3cc(C#Cc4ccc(OC)cc4)ccc31)[C@H](c1ccc(OCCO)cc1)N1[C@H](c3ccccc3)[C@H](c3ccccc3)OC(=O)[C@H]1[C@@H]2C(=O)N1CCc2cc(OC)c(OC)cc2C1
composite z-score: 0.514
//
compound: O=C1C2C=CC(C(O)C3CC=CCC3)N(n3cnnc3)C2C(=O)N1Cc1ccccc1 (stereo not given)
composite z-score: 0.43
//
compound: Cc1ccc(S[C@]2(C(=O)NCCCN(C)C)CC(=O)N(C(C)C)[C@@H]2c2ccc(CO)cc2I)cc1
composite z-score: -0.54

Report composite z-score for every entry below.
1. C=CCC(OC(C)=O)[C@@H]1[C@@H](N(Cc2ccc(-c3ccccc3)cc2)C(=O)c2ccc(C)cc2)c2cc(OCCCO)ccc2N1C(=O)c1ccc2ccccc2n1 (stereo not given in full)
2. C=CCC(OC(C)=O)[C@@H]1[C@@H](N(Cc2cc3ccccc3o2)C(=O)c2cccc3ccccc23)c2cc(OCCCO)ccc2N1C(=O)Cc1ccc2ccccc2c1 (stereo not given in full)

1: 0.42; 2: 0.0901

* * *

test system: Sam68 (KHDRBS1); assay: compounds binding KHDRBS1 protein – biochemical, small-molecule microarray, 635 nm fluorescence, primary screen (AID 1125); details: higher = more signal;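 also: score merges 667 nm channel intensity with signal to noise over triplicate slides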
quantity name: composite z-score
Numbers only.

The cases that follow already have their composite z-score on record.
molecule: O=C(NCc1ccccc1)[C@@H]1c2ccccc2C(=O)N(Cc2cc(F)cc(C(F)(F)F)c2)[C@H]1c1ccc(CO)cc1
target entity: Sam68 (KHDRBS1)
recorded number: 1.27
//
molecule: [N-]=[N+]=Nc1ccccc1[C@H]1OC(c2ccc(OCCCO)cc2)=N[C@@]1(CCS(=O)(=O)c1ccccc1)C(=O)N1CCOCC1
target entity: Sam68 (KHDRBS1)
recorded number: 1.3
//
molecule: O=C1O[C@@H](c2ccccc2)[C@@H](c2ccccc2)N2[C@@H](c3ccc(O)cc3)[C@]3(C(=O)Nc4ccccc43)[C@@H](C(=O)NC[C@H](O)c3ccccc3)[C@H]12
target entity: Sam68 (KHDRBS1)
recorded number: 0.607

Need composite z-score for each of these molecules.
1. C=CCOC(=O)[C@H]1[C@@H]2C(=O)O[C@@H](c3ccccc3)[C@@H](c3ccccc3)N2[C@@H](c2ccc(OCCOC(=O)[C@H]3C[C@H]4C(=O)N[C@@H](CCCC[N+](C)(C)C)C(=O)N4[C@H]3c3ccc(O)cc3)cc2)[C@]12C(=O)Nc1ccccc12
2. O=C1OCCC=C[C@H]2OC34C=CCN(CCN5CCOCC5)C(=O)[C@H]3N(CCO)C(=O)[C@@H]4C12 (some centres not stated)
3. CC(C)C(O)C1C=CC2C(=O)N(C)C(=O)C2N1N1CCCCC1 (configuration not stated)
4. Cc1ccc(S[C@]2(C(=O)NCC(F)(F)F)CC(=O)N(C3Cc4ccccc4C3)[C@@H]2c2ccc(CO)cc2I)cc1

1. 0.028
2. -1.08
3. 0.832
4. -0.292

* * *

tested on: PRMT1 (protein arginine N-methyltransferase 1); assay: small molecules binding arginine methyltransferase PRMT1 – biochemical, small-molecule microarray, 635 nm fluorescence, primary screen (AID 1088); conditions: higher = more signal;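 also: binding of Prmt1 protein to compounds spotted on small-molecule microarray slides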
quantity name: composite z-score
One number for each entry.

In the examples that follow, each entry is paired with its recorded composite z-score.
molecule: COCCOC(=O)N1C(=O)[C@@]2(c3cc(C#Cc4ccc(OC)cc4)ccc31)[C@H](c1ccc(O)cc1)N1[C@H](c3ccccc3)[C@H](c3ccccc3)OC(=O)[C@H]1[C@@H]2C(=O)N1CCN(c2ncccn2)CC1
composite z-score: 1.52
--
molecule: C=C(C(=O)CC[C@@H](OC(=O)c1cccnc1)c1ccc(CO)o1)C(C)C
composite z-score: 1.54
--
molecule: O=C1OCCC=C[C@H]2OC34C=CCN(CCN5CCOCC5)C(=O)[C@H]3N(CCO)C(=O)[C@@H]4C12 (stereo not given in full)
composite z-score: 0.134
--
molecule: CO[C@H]1O[C@H](CO)[C@@H](OC(=O)Nc2ccc(C(F)(F)F)cc2)[C@H](OC(=O)Nc2ccccc2)[C@@H]1OC(=O)Nc1ccccc1
composite z-score: 1.54

// input: 4 molecules below; output: composite z-score for each
1. C/C=C/[C@H](CCn1cc([C@H](O)c2ccccc2)nn1)[Si](C)(C)c1ccc(OC)cc1
2. O=C(NCC(O)CO)[C@]1(CCS(=O)(=O)c2ccccc2)N=C(c2ccc(OCCCO)cc2)O[C@@H]1c1ccccc1 (stereo not given in full)
3. C[N+](C)(C)CCCC[C@@H]1NC(=O)[C@H]2C[C@@H](C(=O)O)[C@@H](c3cccc(OCCO)c3)N2C1=O
4. O=C1O[C@H](c2ccccc2)[C@H](c2ccccc2)N2[C@H]1[C@@H](C(=O)NC[C@H](O)c1ccccc1)[C@]1(C(=O)Nc3ccc(C#CC4=CCCCC4)cc31)[C@H]2c1ccc(O)cc1

1: -0.144; 2: -0.214; 3: 1.54; 4: 1.55

// each listed molecule needs a value for composite z-score
1. CC(C)[Si]1(C(C)C)O[C@@H](c2ccccc2)c2cc(-c3ccc(-c4ccc(Cl)c(Cl)c4)o3)nc(CCc3ccccc3)c21
2. CCCCC(=O)N(Cc1ccccc1F)[C@@H]1CC(C(=O)NCCO)=C[C@H](Oc2c(I)cc(CO)cc2OC)[C@H]1O
3. CC(=O)N1Cc2ccccc2C[C@@]2(N=C(c3ccc(OCCCO)cc3)O[C@H]2c2ccccc2)C1=O

0.324
1.54
1.53

Please go through the list and note composite z-score for each molecule.
1. CC(c1ccccc1)C(O)C1C=CC2C(=O)N(c3ccccc3)C(=O)C2N1Nc1ccccc1F (stereo not given)
2. O=C1OCC=C[C@H]2OC34C=CCN(c5ccc6ccccc6c5)C(=O)[C@H]3N(CCO)C(=O)[C@@H]4[C@@H]12 (stereo not given in full)

1.26
0.491

Okay, here is my list. What is composite z-score for each of these?
1. C=C(COC)C(=O)CC[C@@H](OC(=O)c1ccccc1-c1ccccc1C(=O)O)c1ccc(CO)o1
2. O=C1C2C=CC(C(O)CCc3ccccc3)N(Nc3ccccc3)C2C(=O)N1c1ccccc1 (stereo not given)

1: 1.38; 2: 1.49

* * *

assay: ATP-based viability of Huh7 replicon cells – cell-based, CellTiter-Glo luminescence, basal, 48 h, cytotoxicity control for HCV replication inhibitor project, primary screen (AID 1143); conditions: higher = more signal, called active from +8 up or from −8 down;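 also: Huh7 hepatoma cells carrying a hepatitis C replication reporter with no stimulus; test concentration not given here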
Would you please tag the item 1 when its z-score is -3 or above, and 0 when it is below?

Use the examples below as a reference point.
molecule: C=CC[C@@]1(C(=O)NCCN2CCOCC2)N=C(c2ccc(OCCCO)cc2)O[C@@H]1c1ccccc1CN=[N+]=[N-]
class: 0

molecule: COc1ccc(CCNC(=O)[C@@]2(C)c3ccccc3C(=O)N(Cc3ccccc3)[C@H]2c2ccc(CO)cc2)cc1
class: 0

molecule: CCN(CC)c1ccc(N2CC=CC34O[C@@H]5C=CCOC(=O)[C@@H]5[C@H]3C(=O)N(CCCCCO)[C@@H]4C2=O)cc1 (stereo partly drawn)
class: 1

molecule: O=C1OCCC/C=C\[C@H]2OC34C=CCN(CCN5CCOCC5)C(=O)[C@H]3N(CCO)C(=O)[C@@H]4C12 (stereo partly drawn)
class: 1

Could you verify whether the entry CCCCCCCCCCC(O)C1C=CC2C(=O)N(c3ccccc3)C(=O)C2N1Nc1ccc([N+](=O)[O-])cc1 (stereo not drawn) shows z-score of no less than -3? 1

Does the reported z-score for CN(C)CCCN1C(=O)[C@@]2(c3ccc([N+](=O)[O-])cc3)CC(=O)N(C3CCCCC3)[C@@H]2c2ccc(CO)cc21 fall at or above the -3 mark? 1

Threshold query (z-score >= -3) on CC(c1ccccc1)C(O)C1C=CC2C(=O)N(c3ccccc3)C(=O)C2N1Nc1ccccc1F (stereo not drawn) 1

Does z-score meet or surpass -3 for Cc1cc(C)c(C(O)C2C=CC3C(=O)NC(=O)C3N2Nc2ccccn2)c(C)c1 (stereo not drawn) ? 1
